test system: GIANT FOXTAIL; test: Effect of DTPA, EDTA and other adjuvants on glyphosate efficacy on giant foxtail (% control); type: in vivo; settings: Table 2; combined experiments 1 and 2; 10 gpa, 25 psi; glyphosate 0.275 / 0.20 lb a.e./A; 14 DAT
Hi there, I'd appreciate the recorded % CONTROL 14 DAT for every entry that follows.
Give just the numeric value; % need not be written.

Query: Reported % CONTROL 14 DAT, molecule O=C(O)CNCP(=O)(O)O [GLYPHOSATE, N-(phosphonomethyl)glycine] : ____
Reply: 48

Query: Reported % CONTROL 14 DAT, molecule O=C(O)CN(CCN(CC(=O)O)CC(=O)O)CCN(CC(=O)O)CC(=O)O [2.0% w/v DTPA, Diethylenetriaminepentaacetic acid] : ____
Reply: 0

Query: Reported % CONTROL 14 DAT, molecule O=C(O)CN(CCN(CC(=O)O)CC(=O)O)CC(=O)O [1.0% w/v EDTA, Ethylenediaminetetraacetic acid] : ____
Reply: 0

Query: Reported % CONTROL 14 DAT, molecule O=C(O)CN(CCN(CC(=O)O)CC(=O)O)CCN(CC(=O)O)CC(=O)O [1.0% w/v DTPA, Diethylenetriaminepentaacetic acid] : ____
Reply: 0

Query: Reported % CONTROL 14 DAT, molecule O=C(O)CN(CCN(CC(=O)O)CC(=O)O)CC(=O)O [2 0% w/v EDTA, Ethylenediaminetetraacetic acid] : ____
Reply: 0

* * *

test system: GIANT FOXTAIL; assay: Effect of DTPA, EDTA and other adjuvants on glyphosate efficacy on giant foxtail (% control); type: in vivo; settings: Table 2; combined experiments 1 and 2; 10 gpa, 25 psi; glyphosate 0.275 / 0.20 lb a.e./A; 21 DAT
Observed Property: % CONTROL 21 DAT

Query: Reported % CONTROL 21 DAT, molecule O=C(O)CN(CCN(CC(=O)O)CC(=O)O)CC(=O)O [2 0% w/v EDTA, Ethylenediaminetetraacetic acid] : ____
Reply: 0%

Query: Reported % CONTROL 21 DAT, molecule O=C(O)CNCP(=O)(O)O [GLYPHOSATE, N-(phosphonomethyl)glycine] : ____
Reply: 45%

Query: Reported % CONTROL 21 DAT, molecule O=C(O)CN(CCN(CC(=O)O)CC(=O)O)CCN(CC(=O)O)CC(=O)O [2.0% w/v DTPA, Diethylenetriaminepentaacetic acid] : ____
Reply: 3%

Query: Reported % CONTROL 21 DAT, molecule O=C(O)CN(CCN(CC(=O)O)CC(=O)O)CCN(CC(=O)O)CC(=O)O [1.0% w/v DTPA, Diethylenetriaminepentaacetic acid] : ____
Reply: 3%

Query: Reported % CONTROL 21 DAT, molecule O=C(O)CN(CCN(CC(=O)O)CC(=O)O)CC(=O)O [1.0% w/v EDTA, Ethylenediaminetetraacetic acid] : ____
Reply: 3%
